# tested-on: Polyunsaturated fatty acid lipoxygenase ALOX15 (Homo sapiens) (UniProt P16050)
# Sequence (P16050 whole entry): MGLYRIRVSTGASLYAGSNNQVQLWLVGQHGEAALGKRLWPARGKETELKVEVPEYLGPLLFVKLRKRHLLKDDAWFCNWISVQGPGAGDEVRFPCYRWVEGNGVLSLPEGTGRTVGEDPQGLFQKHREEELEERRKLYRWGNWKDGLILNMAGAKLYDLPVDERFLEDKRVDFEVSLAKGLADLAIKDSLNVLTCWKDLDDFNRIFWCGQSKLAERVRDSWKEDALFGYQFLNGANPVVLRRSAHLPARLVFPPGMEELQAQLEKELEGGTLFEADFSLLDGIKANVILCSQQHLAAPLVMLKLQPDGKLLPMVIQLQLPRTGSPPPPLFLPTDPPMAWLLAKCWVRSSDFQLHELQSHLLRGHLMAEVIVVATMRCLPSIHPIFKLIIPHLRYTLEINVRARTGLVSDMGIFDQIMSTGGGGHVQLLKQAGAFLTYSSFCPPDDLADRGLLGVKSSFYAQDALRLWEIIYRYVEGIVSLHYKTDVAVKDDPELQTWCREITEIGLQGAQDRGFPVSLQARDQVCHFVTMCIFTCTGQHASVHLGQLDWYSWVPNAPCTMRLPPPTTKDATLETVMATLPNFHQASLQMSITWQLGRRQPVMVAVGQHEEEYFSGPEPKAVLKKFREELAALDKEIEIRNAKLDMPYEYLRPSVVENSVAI
# measurement-description: Inhibition of recombinant human 15-LOX-1 expressed in Escherichia coli BL21(DE3) assessed as residual activity at 50 uM using linoleic acid as substrate preincubated for 10 mins followed by substrate addition
Each entry below carries its recorded Activity.
Answer in %, number only, no unit symbol.

// worked examples, Activity included
COc1ccc(-c2c(C(=O)c3ccccc3)[nH]c(N)c2C(=O)c2ccc(Br)cc2)cc1OC :: 94.7
Nc1[nH]c2cc(C(F)(F)F)ccc2c1C(=O)NC1CCCCC1 :: 125
Nc1[nH]c2cc(Cl)ccc2c1C(=O)NCCc1ccc(Cl)cc1 :: 80.2
Nc1[nH]c(C(=O)c2ccccc2)c(-c2ccccc2C(F)(F)F)c1C(=O)NCCc1cccs1 :: 91.5
Nc1[nH]c(C(=O)c2ccccc2)c(-c2ccccn2)c1C(=O)c1c[nH]c2ccc(Br)cc12 :: 55.3
Nc1[nH]c(C(=O)c2ccccc2)c(-c2ccncc2)c1C(=O)NCc1ccc(Cl)cc1 :: 86.6
Cc1ccc([C@@H](C)NC(=O)c2c(N)[nH]c(C(=O)c3ccccc3)c2-c2ccccc2C(F)(F)F)cc1 :: 96.4
Cc1ccc([C@H](C)NC(=O)c2c(N)[nH]c(C(=O)c3ccccc3)c2-c2cc(Cl)cc(Cl)c2)cc1 :: 77.3

Here is another molecule to look at.
Query: # input molecule: Nc1[nH]c(C(=O)c2ccccc2)c(-c2cccnc2)c1C(=O)NC1CCCCC1 ; wanted: its Activity
Reply: 77.5

====

# tested-on: Polyunsaturated fatty acid lipoxygenase ALOX15 (Homo sapiens) (UniProt P16050)
# measurement-description: Inhibition of recombinant human 15-LOX-1 expressed in Escherichia coli BL21(DE3) assessed as residual activity at 50 uM using linoleic acid as substrate preincubated for 10 mins followed by substrate addition
readout-type: Activity

// worked examples, Activity included
CC(C)(C)C(=O)c1c(N)[nH]c(C(=O)c2ccccc2)c1-c1ccc(C(F)(F)F)cc1 :: 86.9%
Nc1[nH]c(C(=O)c2ccccc2)c(-c2ccc(Cl)cc2Cl)c1C(=O)c1ccccc1 :: 73.1%
Nc1[nH]c(C(=O)c2ccccc2)c(-c2ccc(Br)cc2)c1C(=O)c1ccc(Br)cc1 :: 62.2%

Query: # input molecule: Nc1[nH]c(C(=O)c2ccc(Cl)cc2)c(-c2ccc(Br)cc2)c1C(=O)NCc1ccc(Cl)cc1Cl ; wanted: its Activity
Reply: 105%

====

# tested-on: Polyunsaturated fatty acid lipoxygenase ALOX15 (Homo sapiens)
# measurement-description: Inhibition of recombinant human 15-LOX-1 expressed in Escherichia coli BL21(DE3) assessed as residual activity at 50 uM using linoleic acid as substrate preincubated for 10 mins followed by substrate addition
Decision: Activity compared against 60%; not below it gives 1, below it gives 0.

Nc1[nH]c(C(=O)c2ccccc2)c(-c2ccc(Cl)cc2)c1C(=O)c1c[nH]c2ccccc12 :: 1
NC(=O)c1c(N)[nH]c(C(=O)c2ccccc2)c1-c1ccccc1C(F)(F)F :: 1
Cc1[nH]c2ccccc2c1C(=O)c1c(N)[nH]c(C(=O)c2ccc(Br)cc2)c1-c1ccc(Br)cc1 :: 0
Nc1[nH]c(C(=O)c2ccc(Br)cc2)c(-c2ccc(Br)cc2)c1C(=O)NCc1ccc(-c2ccccc2)cc1 :: 1
Nc1[nH]c(C(=O)c2ccc(Br)cc2)c(-c2ccc(Br)cc2)c1C(=O)N1CCCCC1 :: 1
NC(=O)c1c(N)[nH]c(C(=O)c2ccccc2)c1-c1ccccn1 :: 1

Query: Item Nc1[nH]c(C(=O)c2ccc(Br)cc2)c(-c2ccc(Br)cc2)c1C(=O)N1CCOCC1 with Activity of 60% or above?
Reply: 1

Query: Another molecule: Nc1[nH]c(C(=O)c2ccccc2)c(-c2ccc(O)cc2)c1C(=O)NCCc1c[nH]c2ccccc12
Reply: 0

Query: Another molecule: CC(C)(C)C(=O)c1c(N)[nH]c(C(=O)c2ccccc2)c1-c1ccc([N+](=O)[O-])cc1
Reply: 1
